meta.source: ChEMBL document CHEMBL4765354

Tested on: A549
EXPERIMENT_NOTES: Antiproliferative activity against human A549 cells measured after 72 hrs by MTT assay
Format: functional, cell-based
EXPERIMENTAL_PARAMETERS: A549, 72 h
Listing: IC50 of selected compounds
MEASUREMENT_NAME: IC50

[[record]]
compound = "CCn1cc(/C(=N/Nc2nc(-c3ccc(OC)cc3)c(C#N)s2)C(F)(F)F)c2cc(-c3nc(CN4CCCC4)cs3)ccc21"
obs_value = "13.7 µM"

[[record]]
compound = "CCN1CCN(Cc2csc(-c3ccc4c(c3)c(/C(=N/Nc3nc(-c5ccc(F)cc5)c(C#N)s3)C(F)(F)F)cn4CC)n2)CC1"
obs_value = "> 15 µM"

[[record]]
compound = "CCn1cc(/C(=N/Nc2nc3ccccc3s2)C(F)(F)F)c2cc(-c3nc(CN4CCC[C@H]4C(=O)O)cs3)ccc21"
obs_value = "> 15 µM"

[[record]]
compound = "CCc1nc2c(C)cc(N3CCN(CC(=O)N4CC(O)C4)CC3)cn2c1N(C)c1nc(-c2ccc(F)cc2)c(C#N)s1 [ZIRITAXESTAT]"
obs_value = "> 15 µM"

[[record]]
compound = "CCn1cc(/C(=N/Nc2nc(-c3ccc(F)cc3)c(C#N)s2)C(F)(F)F)c2cc(-c3nc(CN4CCC[C@H]4C(=O)O)cs3)ccc21"
obs_value = "> 15 µM"

[[record]]
compound = "Cc1[nH]c2cc(F)c(N3CCN(CCN(C)C)CC3)cc2c1/C(=N/Nc1nc(-c2ccc(F)cc2)c(C#N)s1)C(F)(F)F"
obs_value = "13.4 µM"

[[record]]
compound = "CCn1cc(/C(=N/Nc2nc(-c3ccc(F)cc3)c(C#N)s2)C(F)(F)F)c2cc(-c3nc(CN4CCCC4)cs3)ccc21"
obs_value = "> 15 µM"

